Documented melting point across a set of molecules

Recorded results for 3 molecules are shown here.
Cc1cc2nccn2cc1-c1nc(NCCc2ccccn2)c2ccccc2n1    224 to 228 °C
CN1CCN(C(CNc2nc(-c3ccc4nccn4c3)nc3ccccc23)c2ccccc2)CC1 (centres unmarked)    225 to 227 °C
c1ccc(C(CNc2nc(-c3ccc4scnc4c3)nc3ccccc23)c2ccccc2)cc1    224 to 226 °C

melting point lookup needed for "c1ccc(C(CCNc2nc(-c3cccs3)nc3ccccc23)c2ccccc2)cc1" , thanks.
152 to 155 °C

Entry to check: CC(C)C(CNc1nc(-c2ccc3nccn3c2)nc2ccccc12)c1ccccc1 (centres unmarked)
195 to 196 °C

Repeat with "Cc1cc2nccn2cc1-c1nc(NCC(c2ccncc2)c2ccncc2)c2ccccc2n1"
170 to 175 °C

# repeat for CC(C)C(CNc1nc(N2CCc3[nH]ccc3C2)nc2ccccc12)c1ccccc1 (centres unmarked)
221 to 223 °C

Also c1ccc(OC(CNc2nc(-c3ccc4nccn4c3)nc3ccccc23)c2ccccc2)cc1 (centres unmarked) ?
286 to 288 °C

----------
Subject Of Test: dopamine transporter (DAT) (Rattus norvegicus, UniProt P23977)
Sequence (P23977 whole entry): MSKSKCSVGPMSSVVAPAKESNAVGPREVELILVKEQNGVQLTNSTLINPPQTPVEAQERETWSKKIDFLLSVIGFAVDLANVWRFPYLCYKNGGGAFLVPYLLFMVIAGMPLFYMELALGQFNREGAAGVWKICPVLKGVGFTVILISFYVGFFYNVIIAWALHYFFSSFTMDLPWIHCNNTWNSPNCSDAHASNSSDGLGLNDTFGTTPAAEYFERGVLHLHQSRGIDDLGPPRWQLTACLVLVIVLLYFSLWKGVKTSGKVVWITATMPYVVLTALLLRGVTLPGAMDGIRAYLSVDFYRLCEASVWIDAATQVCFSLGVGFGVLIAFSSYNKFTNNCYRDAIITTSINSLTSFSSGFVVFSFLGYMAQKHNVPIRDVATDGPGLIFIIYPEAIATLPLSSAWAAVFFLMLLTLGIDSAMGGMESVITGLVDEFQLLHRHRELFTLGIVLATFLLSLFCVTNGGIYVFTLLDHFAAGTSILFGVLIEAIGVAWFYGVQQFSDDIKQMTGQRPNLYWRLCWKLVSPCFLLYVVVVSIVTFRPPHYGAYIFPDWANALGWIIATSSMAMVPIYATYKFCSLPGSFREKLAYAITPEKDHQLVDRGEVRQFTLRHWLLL
Assay Overview: Dopamine reuptake ([^3H]dopamine uptake) inhibition in rat brain synaptosomes
Reported Conditions: read-out: DA Uptake Emax (% I ± SD)
We begin with a simple list: items and their reported Emax.
Response body: numeric value in %, unit text excluded.

Check out these entries, answers already filled in.
c1ccc(C(CNc2nc(-c3ccc4c(c3)CCN4)nc3ccccc23)c2ccccc2)cc1    75
COc1cc2nc(-c3ccsc3)nc(NCC(c3ccccc3)c3ccccc3)c2cc1OC    100
c1ccc(CCNc2nc(N3CCc4[nH]ccc4C3)nc3ccccc23)cc1    100

May I ask what Emax has been recorded for "CCOC(=O)c1cn2cc(-c3nc(NCC(c4ccccc4)c4ccccc4)c4ccccc4n3)ccc2n1" ?
64

----------
Subject Of Test: dopamine transporter (DAT) (Rattus norvegicus, UniProt P23977)
Assay Overview: Dopamine reuptake ([^3H]dopamine uptake) inhibition in rat brain synaptosomes
Reported Conditions: DA Uptake EC50 (nM ± SD), rat caudate synaptosomes; 5 nM [^3H]dopamine; 15 min, 25° C.; three experiments pooled
Catalogue of IC50 values
Expressed in nM, but write only the number.

The examples below pair each entry with its known result.
Oc1nc2cc(-c3nc(NCC(c4ccccc4)c4ccccc4)c4ccccc4n3)ccc2[nH]1 [compound 79]    51
c1ccc(C(CCNc2nc(-c3ccsc3)nc3ccccc23)c2ccccc2)cc1 [compound 5]    416

Please turn your attention to the following entry.
Which IC50 is listed for CN(C)c1ncc(-c2nc(NC(c3ccccc3)c3ccccc3)c3ccccc3n2)cn1 [compound 12] ?
174

----------
Subject Of Test: dopamine transporter (DAT) (Rattus norvegicus)
Assay Overview: Dopamine reuptake ([^3H]dopamine uptake) inhibition in rat brain synaptosomes
Reported Conditions: read-out: DA Uptake Emax (% I ± SD)
Measured Attribute: Emax (%)
Give your result in % as a bare value.

c1ccc(C(CNc2nc(-c3cnc4[nH]ccc4c3)nc3ccccc23)c2ccccc2)cc1    69
Nc1ncc(-c2nc(NCC(c3ccccc3)c3ccccn3)c3ccccc3n2)cn1 (stereo not shown)    72
CCN(CC)C(=O)[C@]1(c2ccccc2)C[C@@H]1CNc1nc(-c2ccc3nccn3c2)nc2ccccc12    72
c1ccc(C(CNc2nc(-c3ccc4nccnc4c3)nc3ccccc23)c2ccccc2)cc1    70

Turning now to a further compound:
# query: Emax of entry c1ccc(OC(CNc2nc(-c3ccc4nccn4c3)nc3ccccc23)c2ccccc2)cc1 (stereo not shown)
68
